measurement-target: monkey IGF-1R (on COS-7 cells) (African green monkey); also: test concentration or dose not given here
experimental-protocol: cell-based or functional assay
measured-parameter: % internalisation (%)

{"binder": "c212A11 (antibody, human IgG1, kappa, V domains shown, group G2; also called chimeric 212A11) VH: QVQLQQSGPELVKPGASVKMSCKASGYTFTSYYIHWVKQRPGQGLEWIGWIWPGDGSTKYNEKFKGKTTLTADKSSSTAYMFLSSLTSEDSAVYFCASPMITPNYAMDYWGQGASVTVSS VL: DIQMTQTTSSLSASLGDRVTISCRASQDINKYLNWYQQQPDGTVKLLIYYTSRLHSGVPSRFSGRGSGTDYSLTISNLEQEDIATYFCQQGSTLPYTFGGGTKLEIKR", "readout-number": 75}
